Test system: MS2 coat protein
methodNotes: apparent KD of MS2 coat protein; higher = weaker reporter binding
experimentalParameters: Eterna round: R107; input ligand: theophylline 20 uM
reportedProperty: apparent KD of MS2 coat protein (nM)
Please respond with the number in nM and leave the unit unwritten.

ACAUGAGGAUCACCCAUGUAGCCUAGGGAAGGAGCGUCGUAAGAGACAGGUAGGUCGCCCGCAUGUGAGUCAUCCAUGACGAGGG [#18 Same State - Arginine A] ... 30.1
AAUAAGUACUUUGAUACCAGCCUGCCAUCAUGCUAAUUUACAUGAGGAUCACCCAUGUUAGGCCCUUGGCAGCAAAGUGCAAUAA [XTheo B #1] ... 15.8
AAUUAAAACUGAAGGAGCGUCGUGCGUGGGUGCGUCCCACAUGAGGAUCACCCAUGUGGUUGACAGGUAGGUCGCAGAAUAAUUU [Exclusion - Arginine B] ... 95.5
UAAAACAUGAGGAUCACCCAUGUAAAUGAUACCAGAGUGAUGAUCCUCCCUUGGCAGCAUAACGCUGAUUGAUUACAAUCAGCGA [Mat - Same State Theophlline A - Mod of Eli - D22] ... 160
UGUAUGGACUGAAGGAGCGGGAAAUAAACCUGAGGAUCACCCAGGUAAUAGGCGAAAGCCACCCAGGUAGGUCGCAGUCCAUACU ... 14.3
AGUCUUAUAGGAAGGAGCGCAAUCAUCACAUGAGGAUCACCCAUGUCAAGGUGAGAGUCAUUGCAGGUAGGUCGCCUAACUAAGA [Same State - Arginine B (Freestyle 9)] ... 173

Query: apparent KD of MS2 coat protein; subject: AAGACGGUCGGAAGGAGCGGUACAUGAGGAUCACCCAUGUACUUCUGGGCAUCCGUAGUGUGCCAGGUAGGUCGCCGAUUGCGGG [XArg-B12]
Result: 36.3

Query: Let us now turn to UGACAUUGCUCAGAUACCAGACAUGAGGAUCACCCAUGUGCCAAAUAAACGUACAUAAAUGUCCCUUGGCAGCUGAGCAAUGUCU [TheoBX 11 #MS2Left #Theo2]
Result: 87.5

Query: Now the sequence UAAUCGUAGGCGGCCGCCACUUUUUGGUAGUGUCCAUUGUACACUCACAUGAGGAUCACCCAUGUAAGGACCGGGCCCGCAUCAG [theeternabot_exclusion_MS2_Trp_B_32]
Result: 24.7

Query: And the next one, CGCACAUGAGGAUCACCCAUGUGAGGGCGGCGAGGACCGGUACGGCCGCCACUCGCAGGACAUGAGGAUCACCCAUGUGCCGCCG [SSTA DOUBLE!!! :-D] ?
Result: 397

Query: For UCACGACGCAACGUGAAAUAAUAAACAGAAGGAGCGAGGAAAGCCUCAGGUAGGUCGCUGACAUGAGGAUCACCCAUGUAUUACA [Same State Arginine A GF5] then?
Result: 41.2

Query: Now try CUCUGAGUGAGCAAUCACUCAGAGGCGGAUACCAGCGAGGUCCAUCGCCCUUGGCAGCCGAACAUGAGGAUCACCCAUGUCGGUA [#1 Same State - Theophylline A Attempt #22 (HarryS)] .
Result: 13
